- Test system: Brevibacterium species DSM 2448
- protocol notes: Induction of aminoacid-dehydrogenases: reductive amination of α-ketocarboxylic acids by crude extracts of cells grown with different inductors
- Format: cell-based
- study conditions: crude extract of cells grown 24 h at 30° C. with 1% inductor; substrate 2-keto-4-(methylmercapto)-butyric acid
attribute measured: α-Ketocarboxylic acid Conversion, 3 2-Keto-4-(methylmercapto)-butyric acid

- molecule: "N[C@@H](Cc1ccccc1)C(=O)O"
  measured target: "Brevibacterium species DSM 2448"
  test value: "0,85 U/ml"
- molecule: "N[C@@H](CCC(=O)O)C(=O)O"
  measured target: "Brevibacterium species DSM 2448"
  test value: "0 U/ml"
- molecule: "C[C@H](N)C(=O)O"
  measured target: "Brevibacterium species DSM 2448"
  test value: "0 U/ml"
- molecule: "CC(C)[C@H](N)C(=O)O"
  measured target: "Brevibacterium species DSM 2448"
  test value: "0 U/ml"
- molecule: "N[C@H](Cc1ccccc1)C(=O)O"
  measured target: "Brevibacterium species DSM 2448"
  test value: "0,80 U/ml"
- molecule: "CCCC[C@H](N)C(=O)O"
  measured target: "Brevibacterium species DSM 2448"
  test value: "0 U/ml"
- molecule: "N[C@@H](Cc1c[nH]cn1)C(=O)O"
  measured target: "Brevibacterium species DSM 2448"
  test value: "0,37 U/ml"
- molecule: "CC[C@H](C)[C@H](N)C(=O)O"
  measured target: "Brevibacterium species DSM 2448"
  test value: "0 U/ml"
- molecule: "NC(Cc1ccccc1)C(=O)O (racemic)"
  measured target: "Brevibacterium species DSM 2448"
  test value: "0,85 U/ml"
- molecule: "CC(C)C[C@H](N)C(=O)O"
  measured target: "Brevibacterium species DSM 2448"
  test value: "0 U/ml"
